Target: T1, human GIP receptor (human, UniProt P48546 22-466)
T1 sequence (looked up): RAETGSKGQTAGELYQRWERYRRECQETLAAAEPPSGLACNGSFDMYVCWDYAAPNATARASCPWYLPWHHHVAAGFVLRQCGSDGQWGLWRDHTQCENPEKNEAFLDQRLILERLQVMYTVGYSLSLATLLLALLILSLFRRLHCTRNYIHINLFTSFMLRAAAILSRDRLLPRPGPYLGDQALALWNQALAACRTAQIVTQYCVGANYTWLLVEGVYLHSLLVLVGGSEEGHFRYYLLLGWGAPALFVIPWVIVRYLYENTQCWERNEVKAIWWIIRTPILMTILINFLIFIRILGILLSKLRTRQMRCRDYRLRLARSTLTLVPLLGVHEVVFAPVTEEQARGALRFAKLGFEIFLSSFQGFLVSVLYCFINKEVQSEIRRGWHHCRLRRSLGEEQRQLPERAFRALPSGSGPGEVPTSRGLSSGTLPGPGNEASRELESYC
Experiment: cell-based or functional assay
Label 1 for high-side cAMP EC50 (at or above 0.02 nM) and 0 for low-side cAMP EC50 (below it).

IP249 (Fc fusion) YSEGTFTSDYSKLLEEEAVRLFIEWLLAQKAAAGGSGSTASSGSGSATGGGGAATHTCPPCPAPEF | 0
IP295 (Fc fusion) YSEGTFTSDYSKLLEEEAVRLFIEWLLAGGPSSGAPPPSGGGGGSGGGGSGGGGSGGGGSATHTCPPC | 0
IP292 (Fc fusion) YSEGTFTSDYSKLLEEEAVRCFIEWLVKGGPGGGAPPCGGGGGGGGGGGGGGGGGGGACPPC | 1
IP400 (Fc fusion) YSEGTHTSDLSKLLEEEAVRLFIEWLLAGGGGGGSGGGGSGGGGSGGGGSATHTCPPC | 0
IP131 (Fc fusion) YSEGTFTSDYSKLLEEEAVRLFIEWLLAGGGGGGSGGGGSGGGGSGGGGSATHTCPPCPAPEF | 0

Check the entry IP293 (Fc fusion) YSEGTFTSDYSKLLEEEAVRCFIECLVKGPGGGGGGGGGGGGGGGGGGGGACPPC : does cAMP EC50 equal or exceed 0.02 nM?
1

API: above_or_equal(metric=cAMP EC50, cutoff=0.02 nM) for item IP211 (Fc fusion) YSEGTFTSDYSSYMEEEAVRLFIEWLVKGPAAAGGSGSTASSGSGSATGGGGAATHTCPPCPAPEF
1

Is the recorded value of cAMP EC50 equal to or greater than 0.02 nM for this binder? IP290 (Fc fusion) YSEGTFTSDYSKLLEEEAVRLFIEWLVKGPGGGGGGGGGGGGGGGGGGGGACPPC
0
